measurement_conditions: in isooctane, 298.2 K
attribute_measured: solubility (mole fraction)

// query Record request: solubility (mole fraction) value, item O=C(c1ccccc1)c1ccc(O)cc1O
// result 3.31e-05

* * *

measurement_conditions: in m-xylene, 298.2 K
attribute_measured: solubility (mole fraction)
Output spec: single numeric token, no unit.

// query I would be grateful if you could share the reported solubility (mole fraction) for O=C(c1ccccc1)c1ccc(O)cc1O .
// result 0.00415

* * *

measurement_conditions: in 2-ethoxyethanol, 298.2 K
attribute_measured: solubility (mole fraction)
API note: the answer field is a bare number with no unit suffix.

// query Name the recorded solubility (mole fraction) for O=C(c1ccccc1)c1ccc(O)cc1O .
// result 0.0308
